Origin of values: PubChem BioAssay (NCI)

System: NCI-H460 lung
Assay: NCI tumour cell line growth inhibition, 48 h
# TGI per record follows
PARAMETER: TGI

> print(dat)
                                    molecule   assay.system     result
 1  CC(=O)O[C@H]1C#C/C=C\C#CC[C@@H]2C(=O)N[C@@H]12  NCI-H460 lung    37.6 µM
 2  CC1=NN(c2ccc(S(=O)(=O)O)cc2)C2(C1)SCC(=O)N2c1nc2ccccc2s1 (stereo not given)  NCI-H460 lung   > 100 µM
 3  CC(=O)Nc1cc2c(s1)CCC1CC(=O)NN=C21 (stereo not given)  NCI-H460 lung   > 100 µM
 4  Cc1ccc(-c2cc(N)n(-c3nc4c(c(=O)n(C)c(=O)n4C)n3C)n2)cc1  NCI-H460 lung   > 100 µM
 5  Cc1ccc(C2(O)CC(c3ccc([N+](=O)[O-])o3)=NN2C(=O)COc2ccc(Cl)cc2)cc1 (stereo not given)  NCI-H460 lung    20.7 µM
 6  CC1Cn2c(nc3ccccc32)NC1=O (stereo not given)  NCI-H460 lung   > 100 µM
 7      CCOC(=O)/C=C(/C(=O)OCC)n1ccc(N)nc1=O  NCI-H460 lung   > 100 µM
 8  CCn1c(CO)nn(-c2cc(O[C@@H](C)C(F)(F)F)c(C(=O)Nc3c(F)cccc3Cl)cc2F)c1=O  NCI-H460 lung  > 33.9 µM
 9               COC(=O)/C(C)=C/[N+](=O)[O-]  NCI-H460 lung    54.8 µM
10  CC1=NN(C(=O)CC(=O)N(C(=O)c2ccccc2Cl)c2ccc(C)cc2)C(=O)C1N=Nc1ccc([N+](=O)[O-])cc1 (stereo not given)  NCI-H460 lung  > 76.5 µM

###

Test system: SF-295 CNS
Assay: NCI tumour cell line growth inhibition, 48 h
# reported TGI; entries follow

MOLECULE	ASSAY_SYSTEM	TGI
COc1cc2c(cc1O)C1Cc3ccc(OC)c(O)c3C(C2)N1C (stereo not given)	SF-295 CNS	> 100 µM
CCn1c(CO)nn(-c2cc(O[C@@H](C)C(F)(F)F)c(C(=O)Nc3c(F)cccc3Cl)cc2F)c1=O	SF-295 CNS	> 100 µM
N.N.N.N.[Cl-].[Co+3].[N-]=[N+]=[N-].[N-]=[N+]=[N-]	SF-295 CNS	> 100 µM
C1C[OH+]CCNCC[OH+]CC[OH+]CCN1.[Cl-].[Pt+4]	SF-295 CNS	> 100 µM
Cc1ccc2c(=O)cc(-c3cccs3)[nH]c2n1	SF-295 CNS	> 69.6 µM
Cc1cc[c-]cc1.Fc1c[c-]c(-c2ccccn2)c(F)c1.[Pt+2].c1ccc(P(C[PH+](c2ccccc2)c2ccccc2)c2ccccc2)cc1	SF-295 CNS	10.2 µM
O=C1c2ccccc2CCCCCCCCCCC12OCCCO2	SF-295 CNS	> 100 µM
O=C1c2ccccc2C(=O)N1Cc1ccccc1-c1c2nc(c(-c3ccccc3CN3C(=O)c4ccccc4C3=O)c3ccc([nH]3)c(-c3ccccc3CN3C(=O)c4ccccc4C3=O)c3nc(c(-c4ccccc4CN4C(=O)c5ccccc5C4=O)c4ccc1[nH]4)C=C3)C=C2	SF-295 CNS	> 100 µM
Cc1cc(C2CC(O)C(CO)O2)cc2c(=O)[nH]c(N)nc12 (stereo not given)	SF-295 CNS	> 100 µM
CC(C)CCCC(C)[C@H]1CCC2[C@H]3C(CC[C@@]21C)[C@@]1(C)CCC=C[C@]12C[C@@H]2[C@@H]3O (stereo not given in full)	SF-295 CNS	> 100 µM
O=C(Nc1cc(Cl)ccc1Cl)C(=O)C(c1cnc2ccccc2n1)[N+](=O)[O-] (stereo not given)	SF-295 CNS	> 100 µM
CN1NC(=Nc2ccccc2)Sc2c1cnn(-c1ccccc1)c2=O	SF-295 CNS	> 100 µM
Cc1cc(I)cc(CN(C)CCCN2CCOCC2)c1O	SF-295 CNS	74.8 µM
Nc1nc(CCl)nc(Nc2ccccc2)n1	SF-295 CNS	81.7 µM
O=c1[nH]c2cc(Cl)ccc2nc1/C(=N\O)C(O)c1ccc(Cl)cc1Cl (stereo not given)	SF-295 CNS	> 100 µM
Nn1c(CCCCCCCCc2nnc(COc3ccc(Cl)cc3)n2N)nnc1COc1ccc(Cl)cc1	SF-295 CNS	> 100 µM
COC(=O)C1=C(C(=O)OC)SC2(S1)C1=C(CCCC1)SC(C(=O)OC)=C2C(=O)OC	SF-295 CNS	27.8 µM
O=C(Nc1ccc(CO)cc1)c1coc2ccccc2c1=O	SF-295 CNS	> 100 µM
CC(C)S(=O)(=O)c1ccccc1Nc1nc(Nc2cccc(NC(=O)CN)c2)ncc1Cl	SF-295 CNS	8.59 µM
O=C(Nc1ccc(Br)cc1)c1ccc(Cl)c(Cl)c1	SF-295 CNS	4.94 µM
CC1(C)O/C(=C\c2ccccc2)C(=O)/C(=C/c2ccccc2)O1	SF-295 CNS	> 100 µM
C1CNCCNCCN1	SF-295 CNS	> 100 µM
CNC(=O)Oc1ccc(-c2cn3cc(OC(=O)NC)ccc3n2)cc1	SF-295 CNS	> 100 µM
O=c1c2c([N+](=O)[O-])cccc2nc2[nH]c3ccccc3n12	SF-295 CNS	> 75 µM
Cc1c(C2=C(Br)C(=O)N(C)C2=O)c(=O)n(C)c(=O)n1C	SF-295 CNS	> 100 µM
O=C(O)CC[N+]1=CCC(c2ccccc2)(c2ccccc2)O1	SF-295 CNS	> 100 µM
COC(=O)[C@H](Cc1ccccc1)NC(=O)[C@H](Cc1ccccc1)NC(=O)[C@@H]1CCCN1C(=O)N[C@H]1C2C=CC(C2)C1C(=O)N1CCC[C@H]1C(=O)N[C@@H](C)C(=O)N[C@H](C(=O)OC)C(C)C (stereo not given in full)	SF-295 CNS	> 100 µM
O=c1[nH]cnc2cccc(Cl)c12	SF-295 CNS	> 100 µM
CN(O)C(=O)c1cccc(Cl)c1	SF-295 CNS	> 100 µM
Cc1cc(C)c(C2[C@H]3C(=O)N(c4ccc(Cc5ccc(N6C(=O)[C@@H]7ON(c8ccccc8)C(c8c(C)cc(C)cc8C)[C@@H]7C6=O)cc5)cc4)C(=O)[C@H]3ON2c2ccccc2)c(C)c1 (stereo not given in full)	SF-295 CNS	> 100 µM

###

System: OVCAR-3 ovarian
Experiment: NCI tumour cell line growth inhibition, 48 h; in the data active means GI50 below about 0.43 µM; inactive means the rest
Labels: active, inactive

> print(dat)
                                 chem.smiles  label.class
 1  O=C(/C=C/c1cc(CN2CCOCC2)c(O)c2ncccc12)c1cc(CN2CCOCC2)c(O)c2ncccc12       active
 2  COc1ccc(-c2oc3cc(O)c(OC)c(O)c3c(=O)c2OC)cc1O       active
 3  O=C(CSC(c1ccccc1)c1ccccc1)N/N=C/c1ccc(Cl)cc1Cl     inactive
 4  Cc1cn2c(/C=C3\C(=O)N(C)c4ccc(O)cc43)c(C)nc2s1     inactive
 5  Cc1cc(S(=O)(=O)N/N=C(\Sc2cc(Cl)c(C)cc2S(N)(=O)=O)c2ccc(Cl)cc2)c(Cl)cc1Cl     inactive
 6  COc1cc(C2=C(c3cn(C)c4ccccc34)COC2=O)cc(OC)c1OC       active
 7  COc1ccc(-c2c[nH]c(=S)n2-c2ccc(OC)cc2)cc1     inactive
 8  Cc1cc[c-]cc1.Fc1c[c-]c(-c2ccccn2)c(F)c1.[Pt+2].c1ccc(P(C[PH+](c2ccccc2)c2ccccc2)c2ccccc2)cc1     inactive
 9  O=[N+]([O-])c1ccc2c(c1)C(c1ccccc1Cl)=Nc1cn[nH]c1N2     inactive
10  C=C1C(=O)O[C@H]2[C@H]1CC/C(COC(=O)c1ccc(Cl)nc1)=C\CC[C@@]1(C)O[C@@H]21     inactive
11  Cn1cc(C2=C(c3cn(CCCCCN)c4ccccc34)C(=O)NC2=O)c2ccccc21     inactive
12  COc1ccc(-c2ccc(/C=N/n3c(C)n[nH]c3=S)o2)c([N+](=O)[O-])c1     inactive

###

Test system: MOLT-4 leukemia
Test: NCI tumour cell line growth inhibition, 48 h
Measured TGI, listed per entry.
PARAMETER: TGI

> print(dat)
                                chem.smiles    result
1                COC(=O)/C(C=O)=C/Sc1ccccc1  > 100 µM
2  CC(=O)c1sc(-c2nc(C)c(C(=O)/C=C\c3ccc(/C=C\C(=O)c4sc(-c5nc(C)c(C(C)=O)s5)nc4C)cc3)s2)nc1C  > 100 µM
3  NC1=NS(=O)(=O)Nc2nc(-c3ccc([N+](=O)[O-])cc3)[nH]c21  > 100 µM
4  N#C/C(=C/N1CCN(C(=O)c2ccco2)C1=S)C(=O)c1ccccc1  > 100 µM
5                  O=C1Nc2c(ccc(Cl)c2I)C1=O   40.1 µM
6                 Nc1nc(CCl)nc(Nc2ccccc2)n1   37.2 µM
